# TEST: in vivo
# EXPERIMENTAL_SETUP: rat, po
Task for the reader: assign each of the following compounds its reported LD50.
Numbers only, in mg/kg.

{"COMPOUND": "O=C(c1ccccc1)c1ccc2n1CCC2C(=O)O (centres unmarked) [A]", "MEAS_VALUE": 105}

--- query ---
# get_value(readout='LD50', item= O=C(c1ccccc1)c1ccc2n1CCC2C(=O)OCCN1CCCC1 (centres unmarked) [B] )
235
